Just for reference, patent US7230027B2 is where these values come from.

- Test system: Human Cytochrome P450
- ASSAY DETAILS: Protocol C: human cytochrome P450-mediated biotransformation of terfenadine in human hepatic S9
- Assay type: biochemical
OBSERVATION TYPE: first-pass effect inhibition, determined herein

COMPOUND | OBS VALUE
C/C(=C\COc1ccc2ccc(=O)oc2c1)CC[C@@H](O)C(C)(C)O [marmin] | ineffective
CC(=CCOc1c2ccoc2cc2oc(=O)ccc12)CCC(O)C(C)(C)O (stereo not shown) [6′,7′-dihydroxybergamottin] | ineffective
COc1c2ccoc2c(OC)c2oc(=O)ccc12 [isopimpinellin] | ineffective
CC(C)=CCC/C(C)=C/COc1c2ccoc2cc2oc(=O)ccc12 [bergamottin] | ineffective
